Hey, just so you know, these numbers are from patent US9738637B2.

target_of_assay: JMJD2C (Homo sapiens (Human))
Sequence (Q9H3R0 2-372): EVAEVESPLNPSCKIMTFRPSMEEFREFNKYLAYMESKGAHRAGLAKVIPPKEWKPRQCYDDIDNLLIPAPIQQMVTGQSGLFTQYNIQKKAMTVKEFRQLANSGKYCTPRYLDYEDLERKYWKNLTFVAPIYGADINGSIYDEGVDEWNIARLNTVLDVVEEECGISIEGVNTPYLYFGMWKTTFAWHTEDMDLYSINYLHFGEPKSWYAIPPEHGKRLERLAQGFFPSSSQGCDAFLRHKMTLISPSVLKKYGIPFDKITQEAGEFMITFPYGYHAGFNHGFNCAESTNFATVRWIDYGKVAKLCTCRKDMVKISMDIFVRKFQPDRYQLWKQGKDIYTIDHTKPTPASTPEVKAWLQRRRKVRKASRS
assay_overview: JMJD2C in vitro enzyme inhibition assay (TR-FRET)
Type: biochemical
study_conditions: TR-FRET, H3K9me3-biotin peptide; read-out: IC50 JNJD2C
pIC50: −log10 of the molar value.
observed_property: pIC50

molecule	observed_property	measured_value
Cc1cccc(C(O)c2cc3nccc(C(=O)O)c3[nH]2)c1 (racemic)	pIC50	> 7.00
O=C(O)c1ccnc2cc(COc3cc(Cl)cc(Cl)c3)[nH]c12	pIC50	6.00 to 7.00
O=C(O)c1ccnc2cc(Cc3ccc(Cl)cc3)[nH]c12	pIC50	6.00 to 7.00
Cc1cc(Cc2cc3nccc(C(=O)O)c3[nH]2)ccc1Cl	pIC50	> 7.00
COc1ccc(-c2cc3nccc(C(=O)O)c3[nH]2)c(C)c1	pIC50	6.00 to 7.00

---

target_of_assay: JMJD2C (Homo sapiens (Human))
assay_overview: JMJD2C in vitro enzyme inhibition assay (TR-FRET)
Type: biochemical
study_conditions: TR-FRET, H3K9me3-biotin peptide; read-out: IC50 JNJD2C
Counter-ions that a name gives are not always drawn.
observed_property: IC50

compound	target_of_assay	measured_value
CC(C)(O)c1cc2nccc(C(=O)O)c2[nH]1	JMJD2C (Homo sapiens (Human))	< 100 nM
CC(C)CC(Oc1ccccc1)c1cc2nccc(C(=O)O)c2[nH]1 (racemic)	JMJD2C (Homo sapiens (Human))	1000 to 10000 nM
O=C(O)c1ccnc2cc(Cc3ccc(F)c(F)c3)[nH]c12	JMJD2C (Homo sapiens (Human))	< 100 nM
O=C(O)c1ccnc2cc(CC3CCCCC3)[nH]c12	JMJD2C (Homo sapiens (Human))	< 100 nM
COC(=O)c1ccnc2cc(C(O)c3cccc(C)c3)[nH]c12 (racemic)	JMJD2C (Homo sapiens (Human))	> 10000 nM
O=C(O)c1ccnc2cc(C3CCCC3)[nH]c12	JMJD2C (Homo sapiens (Human))	< 100 nM
O=C(O)c1ccnc2cc(COc3ccccc3)[nH]c12	JMJD2C (Homo sapiens (Human))	< 100 nM
O=C(O)c1ccnc2cc(COc3ccc(Cl)cc3)[nH]c12	JMJD2C (Homo sapiens (Human))	< 100 nM
CC(O)(c1ccc(F)cc1)c1cc2nccc(C(=O)O)c2[nH]1 (stereo not drawn)	JMJD2C (Homo sapiens (Human))	< 100 nM
CC(c1ccc(F)cc1)c1cc2nccc(C(=O)O)c2[nH]1 (stereo not drawn)	JMJD2C (Homo sapiens (Human))	100 to 1000 nM
Cc1ccccc1-c1cc2nccc(C(=O)O)c2[nH]1	JMJD2C (Homo sapiens (Human))	100 to 1000 nM
CC(Oc1ccccc1)c1cc2nccc(C(=O)O)c2[nH]1 (racemic)	JMJD2C (Homo sapiens (Human))	< 100 nM
Cn1nccc1C(O)c1cc2nccc(C(=O)O)c2[nH]1 (racemic)	JMJD2C (Homo sapiens (Human))	< 100 nM
CCCOC(c1cc2nccc(C(=O)O)c2[nH]1)c1ccccc1Cl (racemic)	JMJD2C (Homo sapiens (Human))	1000 to 10000 nM
CCCc1cc2nccc(C(=O)O)c2[nH]1	JMJD2C (Homo sapiens (Human))	< 100 nM
COC(=O)c1ccnc2cc(CO)[nH]c12	JMJD2C (Homo sapiens (Human))	> 10000 nM
O=C(O)c1ccnc2cc(COc3ccccc3Cl)[nH]c12	JMJD2C (Homo sapiens (Human))	1000 to 10000 nM
N#Cc1ccc(OCc2cc3nccc(C(=O)O)c3[nH]2)cc1	JMJD2C (Homo sapiens (Human))	100 to 1000 nM
O=C(O)c1ccnc2cc(C(O)C3CCOCC3)[nH]c12 (racemic)	JMJD2C (Homo sapiens (Human))	100 to 1000 nM
CC(O)c1cc2nccc(C(=O)O)c2[nH]1 (racemic)	JMJD2C (Homo sapiens (Human))	< 100 nM
COC(=O)c1ccnc2cc(-c3ccc(OC)cc3C)[nH]c12	JMJD2C (Homo sapiens (Human))	> 10000 nM
O=C(O)c1ccnc2cc(Cc3ccc(C(F)(F)F)cc3)[nH]c12	JMJD2C (Homo sapiens (Human))	100 to 1000 nM
O=C(O)c1ccnc2cc(Cc3ccccc3)[nH]c12 [Example 7, sodium salt]	JMJD2C (Homo sapiens (Human))	100 to 1000 nM
O=C(O)c1ccnc2cc(C(=O)N3CCc4ccccc4C3)[nH]c12	JMJD2C (Homo sapiens (Human))	100 to 1000 nM
CC1(C)CCCN1C(=O)c1cc2nccc(C(=O)O)c2[nH]1	JMJD2C (Homo sapiens (Human))	100 to 1000 nM
O=C(O)c1ccnc2cc(COc3ccc(C(F)(F)F)cc3)[nH]c12	JMJD2C (Homo sapiens (Human))	100 to 1000 nM
CC(O)(c1ccccc1)c1cc2nccc(C(=O)O)c2[nH]1 (racemic)	JMJD2C (Homo sapiens (Human))	100 to 1000 nM
O=C(O)c1ccnc2cc(C(=O)N3CCCC(c4ccccc4)C3)[nH]c12 (stereo not drawn)	JMJD2C (Homo sapiens (Human))	100 to 1000 nM
COC(=O)c1ccnc2cc(C(C)O)[nH]c12 (racemic)	JMJD2C (Homo sapiens (Human))	> 10000 nM
O=C(O)c1ccnc2cc(Cc3ccccc3Cl)[nH]c12	JMJD2C (Homo sapiens (Human))	< 100 nM
O=C(O)c1ccnc2cc(COc3cccc(F)c3)[nH]c12	JMJD2C (Homo sapiens (Human))	< 100 nM
CCC(O)c1cc2nccc(C(=O)OC)c2[nH]1 (racemic)	JMJD2C (Homo sapiens (Human))	> 10000 nM
O=C(O)c1ccnc2cc(CC3CCCC3)[nH]c12	JMJD2C (Homo sapiens (Human))	< 100 nM
O=C(O)c1ccnc2cc(C(=O)N3CCCc4ccccc43)[nH]c12	JMJD2C (Homo sapiens (Human))	1000 to 10000 nM
O=C(O)c1ccnc2cc(Cc3cc(F)c(Cl)c(Cl)c3)[nH]c12	JMJD2C (Homo sapiens (Human))	100 to 1000 nM
O=C(O)c1ccnc2cc(Cc3ccc(Cl)cc3Cl)[nH]c12	JMJD2C (Homo sapiens (Human))	100 to 1000 nM
O=C(O)c1ccnc2cc(C(=O)N3CCc4ccccc43)[nH]c12	JMJD2C (Homo sapiens (Human))	100 to 1000 nM
O=C(O)c1ccnc2cc(C3CC3)[nH]c12	JMJD2C (Homo sapiens (Human))	< 100 nM
O=C(O)c1ccnc2cc(C(O)c3ccccc3Cl)[nH]c12 (racemic)	JMJD2C (Homo sapiens (Human))	100 to 1000 nM
